- method: chemical genetic growth profiling, strain panel (AID 1159580);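 further: tested at 20 µM; growth read once vehicle control cultures reached saturation at 30 °C; 1 = growth at the plate median or of vehicle wells; lower values mean less growth of the strain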
- test conditions: S. cerevisiae deletion strains, growth OD, locus YCR088W, strain abp1, active compounds read low
The whole screen tested about 5,500 compounds, of which about 2,000 (36%) were called active. Inconclusive results (about 18%) are left out. The list shows a part of the results.
Overview of recorded normalized growth for various molecules
reported property: normalized growth

>  <molecule>
CCCCc1nc(Cl)c(CO)n1Cc1ccc(-c2ccccc2-c2nn[nH]n2)cc1

>  <val>
0.976

$$$$
>  <molecule>
OC(c1cc(C(F)(F)F)nc2c(C(F)(F)F)cccc12)C1CCCCN1 (configuration not stated)

>  <val>
1.01

$$$$
>  <molecule>
COc1cc(/C=C/C(=O)N2CCC=CC2=O)cc(OC)c1OC

>  <val>
0.996

$$$$
>  <molecule>
CC(=O)O[C@H]1CC[C@]2(C)C3CC(=O)[C@]4(C)C(C(C)=O)=CCC4C3CC[C@H]2C1 (some centres not stated)

>  <val>
0.987

$$$$
>  <molecule>
C[C@]12CCC3C(CC[C@H]4C[C@H](OS(=O)(=O)O)CC[C@]34C)C1CCC2=O (some centres not stated)

>  <val>
1.04

$$$$
>  <molecule>
COc1c2occc2c(OC)c2c(=O)cc(C)oc12

>  <val>
0.991

$$$$
>  <molecule>
CCCc1nc2c(C)cc(-c3nc4ccccc4n3C)cc2n1Cc1ccc(-c2ccccc2C(=O)O)cc1

>  <val>
1.02

$$$$
>  <molecule>
COc1cc(-c2coc3cc(O[C@@H]4O[C@H](CO)[C@@H](O)[C@H](O)[C@H]4O)c(OC)c(O)c3c2=O)cc(O)c1OC

>  <val>
0.997

$$$$
>  <molecule>
NC(=O)N1c2ccccc2C=Cc2ccccc21

>  <val>
1.01

$$$$
>  <molecule>
COc1c2ccoc2cc2oc(C)cc(=O)c12

>  <val>
0.99

$$$$
>  <molecule>
COc1cc(O)cc(OC)c1OC

>  <val>
0.987

$$$$
>  <molecule>
COc1c2c(cc3c1OCO3)C13C=C[C@H](OC)CC1N(C2)CC3O (some centres not stated)

>  <val>
0.991

$$$$
>  <molecule>
CCCCCCCCCCCCCCCCCCOCC(O)CO (configuration not stated)

>  <val>
0.997

$$$$
>  <molecule>
CC(=O)OC1CCC2(C)C3CC(=O)C4(C)C(CC5OC6(CCC(C)CO6)[C@@H](C)C54)C3CC[C@H]2C1 (some centres not stated)

>  <val>
0.994

$$$$
>  <molecule>
CC(=O)Oc1ccccc1C(=O)O

>  <val>
0.989

$$$$
>  <molecule>
COc1ccc2c(=O)ccoc2c1

>  <val>
1.03

$$$$
>  <molecule>
CCC1(CC)C(=O)C=CNC1=O

>  <val>
0.986

$$$$
>  <molecule>
CC(=O)O[C@H]1CC[C@]2(C)C3CC[C@@]4(C)C(CC5O[C@@]6(CCC(C)CO6)[C@@H](C)C54)C3CC[C@@H]2C1 (some centres not stated)

>  <val>
1.02

$$$$
>  <molecule>
CC(=O)O[C@@H]1CC[C@]2(C)C3CC[C@]4(C)C(=O)CCC4C3CC[C@H]2C1 (some centres not stated)

>  <val>
0.984

$$$$
>  <molecule>
Cc1c(NC(=O)c2cccnc2)c(=O)n(-c2ccccc2)n1C

>  <val>
0.997

$$$$
>  <molecule>
CNCC[C@@H](Oc1ccccc1)c1ccccc1

>  <val>
0.983

$$$$
>  <molecule>
CC(=O)[O][Hg][c]1ccccc1

>  <val>
0.0606

$$$$
